# System: HT29 colon
# Protocol summary: NCI tumour cell line growth inhibition, 48 h
Below: a set of entries, each annotated with reported TGI.

| Compound | System | TGI |
| --- | --- | --- |
| Oc1cc(CN2CCOCCOCCOCCOCC2)c(O)cc1CN1CCOCCOCCOCCOCC1 | HT29 colon | > 73.3 µM |
| CCCCCCNC(=S)N/N=C(\C)c1ccccn1 | HT29 colon | 19.4 µM |
| CC(=O)C1(C)CC(C#N)(C#N)C(C#N)=C1N (stereo unspecified) | HT29 colon | > 100 µM |
| CC1=C[C@@H](C)C[C@]2(C)CC[C@H](O2)[C@]23CC[C@](CO)(C[C@H](O2)[C@@H]2O[C@@](C)(CC2=O)[C@@H](O)[C@H]2CC[C@@]4(CCC[C@@H](O4)[C@H](C)C(=O)O[C@H]4C[C@H]([C@]5(O)OCC[C@H](C)[C@@H]5O)O[C@H]4C=C1)O2)O3 | HT29 colon | > 10 µM |
| C[N+]1(CCC(=O)c2ccccc2)CCC2CCC(C2)C1 (stereo unspecified) | HT29 colon | > 100 µM |
| COc1cccc(C=C2N=C(c3ccccc3)N(n3c(-c4ccccc4)nc4ccccc4c3=O)C2=O)c1 | HT29 colon | > 100 µM |
| COc1cc(/C=C/c2ccc(Br)cc2)cc(OC)c1OC | HT29 colon | > 39.3 µM |
| Nc1ncnc2c1ncn2-c1ccc([N+](=O)[O-])cn1 | HT29 colon | > 100 µM |
| C(=Nc1cnc2ccccc2c1)c1ccc2ccccc2n1 | HT29 colon | > 100 µM |
| O=C(CCl)Nc1cc(Cl)c(Cl)cc1Cl | HT29 colon | 3.7 µM |
| CCOC(=O)c1nc2ccc(C(F)(F)F)cc2nc1Nc1ccc(F)cc1 | HT29 colon | > 100 µM |
| COc1c(O)cc2c(c1O)C(=O)C1=C(CCCC1)C2=O | HT29 colon | 40 µM |
| CCN(CC)c1ccc(C2Nc3ccc4ccccc4c3C3=C2C(=O)CCC3)cc1 (stereo unspecified) | HT29 colon | > 100 µM |
| COc1cc(COC(=O)N2CC=CC2C(=O)O)c([N+](=O)[O-])cc1OC (stereo unspecified) | HT29 colon | > 100 µM |
| CCOC(=O)c1cnc2c(ccc3[nH]cccc32)c1=O | HT29 colon | > 100 µM |
| CCOC(=O)c1c(NC(=O)c2ccccc2)sc2c3c(ccc12)OCN(C)C3 | HT29 colon | 4.25 µM |
| C[N+]12CCN(c3ccccc31)c1ccccc12 | HT29 colon | > 10 µM |
| COC(=O)n1c(C)c(C=O)c2ccc(OC)cc21 | HT29 colon | > 100 µM |
| CCOC(=O)C(NO)C(Sc1ccccc1)c1ccc(OC)cc1 (stereo unspecified) | HT29 colon | > 100 µM |
| CCCCN=C(N)c1ccc(N2CCCN(c3ccc(C(N)=NCCCC)cc3)CC2)cc1 | HT29 colon | > 59.7 µM |
| C#CCNC(=O)NCCCCC(NC(C)=O)C(=O)NCc1ccccc1 (stereo unspecified) | HT29 colon | > 100 µM |

* * *

# Tested on: SNB-75 CNS
# Protocol summary: NCI tumour cell line growth inhibition, 48 h

| Compound | Relation symbol | TGI (µM) |
| --- | --- | --- |
| CCOC(=O)c1c(NC(=O)c2ccccc2)sc2c3c(ccc12)OCN(C)C3 | = | 2.74 |
| COc1ccc(Cn2cc3c(c2)-c2oncc2CC3)cc1OC | = | 0.761 |
| COc1cc(/C=C/C(=O)/C=C/c2cc3ccc(Cl)cc3n(Cc3ccccc3)c2=O)ccc1O | = | 7.42 |
| CN(C)C(=O)OC1=CC2CCC(C1)N2C (stereo not given) | > | 100 |
| COC(=O)c1cc(NC(=O)c2cc(NC(=O)Cc3c[nH]c4ccccc34)cn2C)cn1C | = | 92.9 |
